Target System: T1, human CCR8 (human, UniProt P51685 1-355)
T1 construct: whole, on cells; the cell line is named under assay; also called hCCR8
T1 sequence (P51685 whole entry): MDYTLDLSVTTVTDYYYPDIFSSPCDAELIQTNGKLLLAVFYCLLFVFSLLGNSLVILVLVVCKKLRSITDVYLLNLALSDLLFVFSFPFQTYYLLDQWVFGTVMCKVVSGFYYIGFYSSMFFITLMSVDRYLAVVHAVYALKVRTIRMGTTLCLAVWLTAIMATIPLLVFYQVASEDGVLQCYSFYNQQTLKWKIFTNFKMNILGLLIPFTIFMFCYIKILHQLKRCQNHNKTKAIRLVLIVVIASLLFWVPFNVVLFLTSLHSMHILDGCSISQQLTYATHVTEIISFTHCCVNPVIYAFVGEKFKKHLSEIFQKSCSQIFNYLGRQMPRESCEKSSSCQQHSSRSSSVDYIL
Assay Details: flow cytometry, hybridoma supernatant on CHOK1-hCCR8 cells

- Binder: "589D7C7 (antibody, V domains shown, Murine hybridoma antibody; also called 589D7C7 hybridoma antibody) VH: EVQLVESGGGLVQPKGSLKLSCAASGFNFNAYAMNWVRQAPGKGLEWVARIRSKSNNFATYYADSVKDRFTISRDDSESMVYLEMNNLKTEDTAMYYCVRHGRRDLLYSMDFWGQGTSVTVSS VL: DIVMTQAAFSNPVTLGTSASISCRSSKSLLHSNGITYLFWYLQKPGQSPQLLIYQMSNLASGVPDRFSGSGSGTDFTLRISRVEAEDVAVYYCAQSLELPLTFGGGTKLEIK"
  Units Label: "MFI"
  MFI: 6120
